Provenance of the data: patent US9145399B2

System: Aβtotal
Experiment: Screening for γ-secretase-modulating activity in SKNBE2 cells carrying APP 695 wild type: Aβtotal in cell supernatant (Alphalisa)
Type: cell-based
Settings: Homo sapiens, overnight incubation
quantity-kind: IC50

* COc1cc(Nc2nc3n(n2)CCCC3c2ccccc2F)ccc1-n1cnc(C)c1 (stereo not drawn) | > 10 µM

Enter measured IC50, system Aβtotal, for the compound shown: Cc1cc(-c2ccc(Nc3nc4n(n3)CCCC4c3ccccc3C(F)(F)F)cc2)ccn1 (stereo not drawn) > 10 µM

Enter measured IC50, system Aβtotal, for the compound shown: COc1cc(Nc2nc3n(n2)CCOC3c2ccccc2C(F)(F)F)ccc1-c1ccnc(C)c1 (stereo not drawn) > 10 µM

Enter measured IC50, system Aβtotal, for the compound shown: `COc1cc(Nc2nc3c(-c4ccc(F)cc4C(F)(F)F)cccn3n2)ccc1-n1cnc(C)c1` 7.41 µM

Enter measured IC50, system Aβtotal, for the compound shown: COc1cc(Nc2nc3n(n2)CCCC3c2ccc(C(F)(F)F)cc2)ccc1-n1cnc(C)c1 (stereo not drawn) 8.13 µM

Enter measured IC50, system Aβtotal, for the compound shown: COc1cc(Nc2nc3n(n2)CCCC3c2ccccc2Cl)ccc1-c1ccnc(C)c1 (racemic) [Compound 66] 9.12 µM

Enter measured IC50, system Aβtotal, for the compound shown: COc1nc(Nc2nc3n(n2)CCCC3c2ccccc2C(F)(F)F)ccc1-n1cnc(C)c1 (stereo not drawn) > 10 µM

Enter measured IC50, system Aβtotal, for the compound shown: Cc1cc(-c2ccc(Nc3nc4n(n3)CCCC4c3cc(C(F)(F)F)ccc3C)cc2)ccn1 (stereo not drawn) > 10 µM

Enter measured IC50, system Aβtotal, for the compound shown: `COc1cc(Nc2nc3n(n2)CCC[C@@H]3c2ccccc2Cl)ccc1-n1cnc(C)c1` 5.13 µM

Enter measured IC50, system Aβtotal, for the compound shown: `COc1cc(Nc2nc3c(-c4cccc(C(F)(F)F)c4)nccn3n2)ccc1-n1cnc(C)c1` 7.59 µM

Enter measured IC50, system Aβtotal, for the compound shown: Cc1cc(-c2ccc(Nc3nc4n(n3)CCOC4c3ccccc3Cl)cc2)ccn1 (stereo not drawn) > 10 µM

###

Tested on: Aβ42
Assay: Screening for γ-secretase-modulating activity in SKNBE2 cells carrying APP 695 wild type: Aβ42 in cell supernatant (Alphalisa)
Format: cell-based
Settings: Homo sapiens, SKNBE2, SKNBE2 cells carrying APP 695 wild type, overnight incubation
quantity-kind: IC50 (nM)

• COc1cc(Nc2nc3c(-c4ccc(F)cc4C(F)(F)F)cccn3n2)ccc1-n1cnc(C)n1 [Compound 4] = 22
• COc1cccc(C2CCCn3nc(Nc4ccc(-c5ccnc(C)c5)c(F)c4)nc32)c1 (stereo not drawn) [Compound 102] = 29
• COc1cc(Nc2nc3n(n2)CCCC3c2ccccc2Cl)ccc1-n1cnc(C)c1 (stereo not drawn) [Compound 27] = 14

A: Cc1cc(-c2ccc(Nc3nc4c(-c5ccccc5Cl)cccn4n3)cc2)cc(C)n1 [Compound 26]
B: COc1cc(C(=O)Nc2nc3n(n2)CCCC3c2ccc(F)cc2)ccc1-n1cnc(C)c1 (stereo not drawn) [Compound 36]
C: COc1cc(Nc2nc3c(-c4cc(C(F)(F)F)ccc4F)cccn3n2)ccc1-n1cnc(C)c1 [Compound 63]
D: COc1cc(Nc2nc3n(n2)CCCC3c2cc(C(F)(F)F)ccc2F)ccc1-n1cnc(C)c1 (stereo not drawn) [Compound 48]
E: COc1cc(Nc2nc3n(n2)CCCC3c2ccccc2C(F)(F)F)ccc1-n1cnc(C)c1 (stereo not drawn) [Compound 31]
Please list the entries, largest IC50 first. # output: labels, in the requested order B, A, D, C, E
(B: 501 nM, A: 43 nM, D: 30 nM, C: 19 nM, E: 13 nM)

###

Test system: Aβtotal
Assay: Screening for γ-secretase-modulating activity in SKNBE2 cells carrying APP 695 wild type: Aβtotal in cell supernatant (Alphalisa)
Format: cell-based
Details: Homo sapiens, overnight incubation
From the text: Pharmacology A) Screening of the Compounds of the Invention for γ-Secretase-Modulating Activity […] Aβtotal and Aβ42 concentrations were quantified in the cell supernatant using the Aphalisa technology (Perkin Elmer). […] To quantify the amount of Aβ42 in the cell supernatant, monoclonal antibody specific to the C-terminus of Aβ42 (JRF/cAβ42/26) was coupled to the receptor beads and biotinylated antibody specific to the N-terminus of Aβ (JRF/AβN/25) was used to react with the donor beads. […]
pIC50: −log10 of the molar value.
quantity-kind: pIC50

Solved cases below.
* COc1cc(Nc2nc3c(-c4ccc(F)cc4)c(C)ccn3n2)ccc1-c1ccnc(C)c1 [Compound 74] | 5.13
* COc1cc(Nc2nc3c(N4CCCC(C(F)(F)F)C4)cccn3n2)ccc1-c1ccnc(C)c1 (centres unmarked) [Compound 181] | 5.40
* COc1cc(Nc2nc3c(-c4cccc(C(F)(F)F)c4)cccn3n2)ccc1-n1cnc(C)c1 [Compound 20] | 5.23

A: COc1cc(Nc2nc3n(n2)CCCC3c2ccc(F)cc2C)ccc1-c1ccnc(C)c1 (centres unmarked) [Compound 91]
B: COc1cc(Nc2nc3c(-c4ccc(F)cc4C)cccn3n2)ccc1-n1cnc(C)c1 [Compound 19]
Given the listed records, identify the one among A and B with higher pIC50. Record your answer as the label of the chosen record. B

###

Tested on: Aβ42
Test: In vivo efficacy: Aβ42 lowering in brain of non-transgenic mice after single oral dose (ELISA)
Parameters: species or system mouse
Details: Mus musculus; dose 30 mg/kg oral dosing; soluble brain fraction, animals sacrificed after 4 h; untreated animals (Ctrl) set at 100; read-out: Aβ42 (% vs Ctrl) _Mean
Let's look at some molecules and their measured response vs control in vivo at 30 mg/kg.
Express it in %; write the number only.

• COc1cc(Nc2nc3n(n2)CCCC3c2ccc(F)cc2F)ccc1-c1ccnc(C)c1 (centres unmarked) = 47
• COc1cc(Nc2nc3n(n2)CCCC3c2ccccc2Cl)ccc1-c1ccnc(C)c1 (centres unmarked) [Compound 78] = 46
• Cc1cc(-c2ccc(Nc3nc4n(n3)CCCC4c3ccc(F)cc3C)cc2)ccn1 (centres unmarked) = 38
• Cc1cc(-c2ccc(Nc3nc4n(n3)CCCC4c3ccccc3Cl)cc2)ccn1 (centres unmarked) = 54
• COc1cc(F)cc(C2CCCn3nc(Nc4ccc(-c5ccnc(C)c5)cc4)nc32)c1 (centres unmarked) = 52
• Cc1cc(-c2ccc(Nc3nc4n(n3)CCCC4c3ccc(F)cc3F)cc2)ccn1 (centres unmarked) = 41
• COc1cc(Nc2nc3n(n2)CCCC3c2ccc(F)cc2C)ccc1-c1ccnc(C)c1 (centres unmarked) = 51
• Cc1cc(-c2ccc(Nc3nc4n(n3)CCCC4c3ccccc3C(F)(F)F)cc2)ccn1 (centres unmarked) = 58

Fill in reported response vs control in vivo at 30 mg/kg for this entry: COc1cc(Nc2nc3n(n2)CCOC3c2ccccc2Cl)ccc1-c1ccnc(C)c1 (centres unmarked) 48

Fill in reported response vs control in vivo at 30 mg/kg for this entry: COc1cc(Nc2nc3n(n2)C(c2ccccc2C(F)(F)F)CCC3)ccc1-c1ccnc(C)c1 (centres unmarked) 45

Fill in reported response vs control in vivo at 30 mg/kg for this entry: COc1cc(Nc2nc3n(n2)CCN(C(C)=O)C3c2ccccc2C(F)(F)F)ccc1-n1cnc(C)c1 (centres unmarked) 101

Fill in reported response vs control in vivo at 30 mg/kg for this entry: `COc1cc(Nc2nc3n(n2)CCC[C@H]3c2ccccc2Cl)ccc1-n1cnc(C)c1` 99

Fill in reported response vs control in vivo at 30 mg/kg for this entry: COc1cc(Nc2nc3n(n2)CCOC3c2ccccc2C(F)(F)F)ccc1-c1ccnc(C)c1 (centres unmarked) 64

Fill in reported response vs control in vivo at 30 mg/kg for this entry: COc1cc(Nc2nc3n(n2)CCN(C)C3c2ccccc2C(F)(F)F)ccc1-n1cnc(C)c1 (centres unmarked) 93

###

quantity-kind: melting point (°C)

- COc1cc(Nc2nc3n(n2)CCCC3c2ccc(F)cc2C)ccc1-n1cnc(C)c1 (stereo not shown): 249
- COc1cc(Nc2nc3n(n2)CCCC3c2c(F)cccc2Cl)ccc1-c1ccnc(C)c1 (stereo not shown): 174
- Cc1cc(-c2ccc(Nc3nc4c(-c5ccccc5Cl)cccn4n3)cc2)cc(C)n1: 228.1
- COc1cc(Nc2nc3c(-c4ccccc4C(F)(F)F)cccn3n2)ccc1-n1cnc(C)n1: 195.5

###

Tested on: Aβ42
Assay: In vivo efficacy: Aβ42 lowering in brain of non-transgenic mice after single oral dose (ELISA)
Design: species or system mouse
Conditions: Mus musculus; dose 30 mg/kg oral dosing; soluble brain fraction, animals sacrificed after 4 h; untreated animals (Ctrl) set at 100; read-out: Aβ42 (% vs Ctrl) _Mean
Let's look at some compounds and their measured response vs control in vivo at 30 mg/kg.
Express it in %; write the number only.

Solved cases below.
* COc1cc(Nc2nc3n(n2)CCCC3c2ccccc2C(F)(F)F)ccc1-n1cnc(C)c1 (stereo not drawn) | 83
* COc1cc(Nc2nc3n(n2)CCC[C@@H]3c2ccccc2Cl)ccc1-n1cnc(C)c1 | 81

The record that follows has no response vs control in vivo at 30 mg/kg shown yet.
Fill in reported response vs control in vivo at 30 mg/kg for this entry: FC(F)(F)c1ccccc1C1CCCn2nc(Nc3ccc(-c4cccnc4)cc3)nc21 (stereo not drawn) 61
